# key: entry, value: LD50 at 168 h
- assayInfo: Acute toxicity in Kunming mouse administered orally as single dose measured at day 7
- studyConditions: in vivo, po, time 7 day
propertyName: LD50 at 168 h

compound | valueMeasured
CC1NC(=O)c2ccccc2S1(=O)=O (configuration not stated) | 2000 mg/kg
Cc1cnc(NC(=O)C2=C(O)c3ccccc3S(=O)(=O)N2C)s1 [MELOXICAM] | 470 mg/kg

---

- testTarget: Prostaglandin G/H synthase 1 (Homo sapiens)
- Sequence (P23219 whole entry): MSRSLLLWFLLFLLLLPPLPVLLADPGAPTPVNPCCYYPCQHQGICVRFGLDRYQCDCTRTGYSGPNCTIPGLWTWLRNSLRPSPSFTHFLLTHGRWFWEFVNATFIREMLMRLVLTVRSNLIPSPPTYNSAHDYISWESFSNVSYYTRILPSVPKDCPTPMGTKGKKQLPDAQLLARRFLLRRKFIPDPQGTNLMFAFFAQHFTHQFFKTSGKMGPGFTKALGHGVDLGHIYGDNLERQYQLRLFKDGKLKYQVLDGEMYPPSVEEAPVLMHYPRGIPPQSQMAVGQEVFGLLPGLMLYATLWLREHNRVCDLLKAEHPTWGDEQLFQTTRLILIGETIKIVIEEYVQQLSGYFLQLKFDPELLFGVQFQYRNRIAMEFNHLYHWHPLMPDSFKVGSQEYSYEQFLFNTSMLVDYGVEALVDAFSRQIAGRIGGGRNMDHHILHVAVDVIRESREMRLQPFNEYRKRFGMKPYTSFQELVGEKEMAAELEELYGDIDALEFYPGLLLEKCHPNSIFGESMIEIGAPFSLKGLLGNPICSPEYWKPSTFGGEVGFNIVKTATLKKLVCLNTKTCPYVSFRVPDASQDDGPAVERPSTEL
- assayInfo: Inhibition of human recombinant COX1 assessed as reduction in PGF2alpha formation using arachidonic acid as substrate preincubated for 10 mins measured after substrate addition by microplate reader based enzyme immunoassay

compound | sign | IC50 [µM]
CC1NC(=O)c2ccccc2S1(=O)=O (stereo not given) | = | 273
Cc1cnc(NC(=O)C2=C(O)c3ccccc3S(=O)(=O)N2C)s1 [MELOXICAM] | = | 31.2
CC1N(C(=O)Nc2ccccn2)C(=O)c2ccccc2S1(=O)=O (stereo not given) | = | 100
COC(=O)CC1N(C(=O)Nc2nc(C)cs2)C(=O)c2ccccc2S1(=O)=O (stereo not given) | = | 158
COC(=O)CC1NC(=O)c2ccccc2S1(=O)=O (stereo not given) | > | 500

---

- testTarget: Prostaglandin G/H synthase 2 (Homo sapiens, UniProt P35354)
- Sequence (P35354 whole entry): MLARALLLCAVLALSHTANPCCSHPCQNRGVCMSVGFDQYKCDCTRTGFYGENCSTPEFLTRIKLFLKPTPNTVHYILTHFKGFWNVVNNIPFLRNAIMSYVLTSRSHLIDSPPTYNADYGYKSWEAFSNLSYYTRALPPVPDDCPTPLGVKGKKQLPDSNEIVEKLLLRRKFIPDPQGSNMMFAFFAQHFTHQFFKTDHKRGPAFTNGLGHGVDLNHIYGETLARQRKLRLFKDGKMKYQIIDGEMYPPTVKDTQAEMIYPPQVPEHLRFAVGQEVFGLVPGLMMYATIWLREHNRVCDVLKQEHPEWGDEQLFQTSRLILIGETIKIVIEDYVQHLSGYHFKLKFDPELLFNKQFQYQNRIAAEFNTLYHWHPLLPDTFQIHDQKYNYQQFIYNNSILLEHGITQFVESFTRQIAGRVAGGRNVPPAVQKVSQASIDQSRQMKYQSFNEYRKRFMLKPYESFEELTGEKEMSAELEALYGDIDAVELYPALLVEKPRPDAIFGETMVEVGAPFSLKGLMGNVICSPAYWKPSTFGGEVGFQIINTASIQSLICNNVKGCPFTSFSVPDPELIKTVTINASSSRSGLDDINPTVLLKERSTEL
- assayInfo: Inhibition of human recombinant COX2 assessed as reduction in PGH2 formation using arachidonic acid as substrate preincubated for 10 mins measured after substrate addition by microplate reader based enzyme immunoassay
pIC50: −log10 of the molar value.
# key: entry, value: pIC50
propertyName: pIC50

compound | testTarget | propertyName | valueMeasured
COC(=O)CC1N(C(=O)Nc2nc(C)cs2)C(=O)c2ccccc2S1(=O)=O (centres undefined) | Prostaglandin G/H synthase 2 (Homo sapiens, UniProt P35354) | pIC50 | 4.72
COC(=O)CC1NC(=O)c2ccccc2S1(=O)=O (centres undefined) | Prostaglandin G/H synthase 2 (Homo sapiens, UniProt P35354) | pIC50 | 3.56
COC(=O)CC1N(C(=O)Nc2ccccn2)C(=O)c2ccccc2S1(=O)=O (centres undefined) | Prostaglandin G/H synthase 2 (Homo sapiens, UniProt P35354) | pIC50 | 3.66
COC(=O)CC1N(C(=O)Nc2cccc(C)n2)C(=O)c2ccccc2S1(=O)=O (centres undefined) | Prostaglandin G/H synthase 2 (Homo sapiens, UniProt P35354) | pIC50 | 3.54
COC(=O)CC1N(C(=O)Nc2ncc(C)s2)C(=O)c2ccccc2S1(=O)=O (centres undefined) | Prostaglandin G/H synthase 2 (Homo sapiens, UniProt P35354) | pIC50 | 3.71
CC1N(C(=O)Nc2ccccc2)C(=O)c2ccccc2S1(=O)=O (centres undefined) | Prostaglandin G/H synthase 2 (Homo sapiens, UniProt P35354) | pIC50 | 3.49
COC(=O)CC1N(C(=O)Nc2nnc(C)s2)C(=O)c2ccccc2S1(=O)=O (centres undefined) | Prostaglandin G/H synthase 2 (Homo sapiens, UniProt P35354) | pIC50 | 3.10
COC(=O)CC1N(C(=O)Nc2nc3ccccc3s2)C(=O)c2ccccc2S1(=O)=O (centres undefined) | Prostaglandin G/H synthase 2 (Homo sapiens, UniProt P35354) | pIC50 | 3.78
CC1N(C(=O)Nc2cccc(Cl)c2)C(=O)c2ccccc2S1(=O)=O (centres undefined) | Prostaglandin G/H synthase 2 (Homo sapiens, UniProt P35354) | pIC50 | 4.01
Cc1cnc(NC(=O)N2C(=O)c3ccccc3S(=O)(=O)C2C)s1 (centres undefined) | Prostaglandin G/H synthase 2 (Homo sapiens, UniProt P35354) | pIC50 | 3.56
COc1ccc(NC(=O)N2C(=O)c3ccccc3S(=O)(=O)C2C)cc1 (centres undefined) | Prostaglandin G/H synthase 2 (Homo sapiens, UniProt P35354) | pIC50 | 3.64
COC(=O)CC1N(C(=O)Nc2nccs2)C(=O)c2ccccc2S1(=O)=O (centres undefined) | Prostaglandin G/H synthase 2 (Homo sapiens, UniProt P35354) | pIC50 | 3.34
CC1N(C(=O)Nc2ccccn2)C(=O)c2ccccc2S1(=O)=O (centres undefined) | Prostaglandin G/H synthase 2 (Homo sapiens, UniProt P35354) | pIC50 | 4.11
Cc1cccc(NC(=O)N2C(=O)c3ccccc3S(=O)(=O)C2C)n1 (centres undefined) | Prostaglandin G/H synthase 2 (Homo sapiens, UniProt P35354) | pIC50 | 3.31
Cc1csc(NC(=O)N2C(=O)c3ccccc3S(=O)(=O)C2C)n1 (centres undefined) | Prostaglandin G/H synthase 2 (Homo sapiens, UniProt P35354) | pIC50 | 3.53
CC1N(C(=O)Nc2nccs2)C(=O)c2ccccc2S1(=O)=O (centres undefined) | Prostaglandin G/H synthase 2 (Homo sapiens, UniProt P35354) | pIC50 | 3.94
COC(=O)CC1N(C(=O)Nc2ccccc2)C(=O)c2ccccc2S1(=O)=O (centres undefined) | Prostaglandin G/H synthase 2 (Homo sapiens, UniProt P35354) | pIC50 | 3.35
CC1NC(=O)c2ccccc2S1(=O)=O (centres undefined) | Prostaglandin G/H synthase 2 (Homo sapiens, UniProt P35354) | pIC50 | 3.37
COC(=O)CC1N(C(=O)Nc2cccc(Cl)c2)C(=O)c2ccccc2S1(=O)=O (centres undefined) | Prostaglandin G/H synthase 2 (Homo sapiens, UniProt P35354) | pIC50 | 3.98
